# Test system: guinea pig lung slices
# test description: Methacholine-induced airway constriction in guinea pig lung slices
# Type: cell-based
# cond: Cavia porcellus, read-out: MCh EC50, 10 μM Fenoterol
observable: EC50 (nM)
Enter your answer as a number in nM; do not include the unit.

Ask: Find the measured EC50 of CC(Cc1ccc(O)cc1)NCC(O)c1cc(O)cc(O)c1 (stereo not shown) [Fenoterol, fenoterol] and report it.
Reply: 560
